Assay Text: qHTS assay for small molecule activators of the nuclear factor-kappa B (NF-kB) signaling pathway (AID 651749); further: % of control where 0% means no effect
Measurement Context: NF-kB-bla ME-180 cells, beta-lactamase FRET ratio, 16 h; stronger effect = higher value
Inconclusive results are not listed.
Measure Name: activation (%)
State the answer as a number, implicitly in %.

Solved cases below.
Compound | activation (%)
Cc1cccc(C(=O)O)c1[N+](=O)[O-] | -0.935
Cc1ccco1 | -0.364
O=Cc1c(Cl)cccc1Cl | -0.578
C1CCOC1 | 1.14
O=C(O)/C=C/C(=O)O | -1.19

Problem: activation for `c1ccsc1` ?
Solution: 0.633

Problem: Requested field: activation. Item: `CC(=O)Nc1ccc(N)cc1`
Solution: -0.653

Problem: Fill blank: measured activation of the compound `O=C1CCCCC1` is ____.
Solution: -1.28

Problem: Name the recorded activation for `CC#N` .
Solution: -1.06

Problem: // query activation value for entry `O=C(O)c1ccc(Cl)cc1Cl`
Solution: -0.499

Problem: Any idea what activation was measured for `COc1cccc2sc(N)nc12` ?
Solution: 0.198

Problem: So what's the measured activation for this one? `Cc1ccc2ccccc2c1[N+](=O)[O-]`
Solution: 0.793

Problem: Give the measured activation of `Cc1ccc(C)c([N+](=O)[O-])c1` .
Solution: 0.199

Problem: Any idea what activation was measured for `NC(=O)/N=N/C(N)=O` ?
Solution: 2.36

Problem: Return reported activation; argument: `O=c1[nH][nH]c(=O)c2cc([N+](=O)[O-])ccc12`
Solution: 0.392

Problem: # activation lookup, item `CCN(CC)c1cccc(O)c1`
Solution: 0.251

Problem: What value of activation has been reported for the following compound? `CCOCC(=O)O`
Solution: 0.266

Problem: Which activation reading was recorded for the compound `COC(=O)CC#N` ?
Solution: -0.54

Problem: So what's the measured activation for this one? `CN(C)CCCCl`
Solution: 0.444

---

Assay Text: Cell Viability - LYMP2-001 (AID 921);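 further: cells exposed to compound for 24 h at 37 °C; 0% = DMSO only and full inhibition = tetraoctylammonium bromide control wells; nearly all actives have a fitted effect of over 70% in size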
Measurement Context: LYMP2-001 lymphoblastoid cell viability; series mostly up to 92.2 µM
Records with an inconclusive call do not appear. Activity calls are given as the source filed them. Calls follow the shape of the dose curve; as a rule, active = well fitted cell-killing curve with a large enough effect; inconclusive = small, poorly fitted or top-dose-only effect; inactive = no such curve, though single readings can be large or run the other way.
Thanks in advance; please answer with one of these: Yes = active, No = inactive

Problem: Assay outcome for `CC/C=C1/OC(=O)c2ccccc21` : what was it?
Solution: No

Problem: Check the results log: what was the call for `C=Cc1ccccn1` ?
Solution: No

---

Assay Text: Cell Viability - N2a (AID 540);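 further: cells exposed to compound for 40 h at 37 °C; plate controls were DMSO alone for no effect and tamoxifen control for full effect; nearly all actives have a fitted effect of over 45% in size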
Measurement Context: N2a mouse neuroblastoma cell viability; at 92.2 µM (top of the series)
Results filed as inconclusive are left out.
Here, each record is paired with measured activity change, negative = cytotoxicity data.
# value in %; strip the unit string

Here are 5 molecules together with their reported answers.
Molecule | Measure Name | Measured
C/C=C1\CC2C=CC1C2 (configuration not stated) | activity change, negative = cytotoxicity | 4.82
C=CCCC | activity change, negative = cytotoxicity | 1.78
O=[N+]([O-])c1cccc(C(F)(F)F)c1 | activity change, negative = cytotoxicity | 4.54
O=Cc1cccc(Br)c1 | activity change, negative = cytotoxicity | 0.0642
CCC=O | activity change, negative = cytotoxicity | 1.92

Problem: Consider the molecule `Nc1cc([N+](=O)[O-])ccc1C(=O)O` and give its measured activity change, negative = cytotoxicity.
Solution: 7.91

Problem: What value of measured activity change, negative = cytotoxicity is listed for `NC(=S)NNC(N)=S` ?
Solution: 4.33

Problem: State the recorded activity change, negative = cytotoxicity for this entry: CC(N)CN (configuration not stated)
Solution: 3.26

Problem: Which value of activity change, negative = cytotoxicity has been reported for `Cc1cccc(C)c1[N+](=O)[O-]` in the records?
Solution: -11.3

Problem: # activity change, negative = cytotoxicity lookup, item `O=C(O)c1ccc(C(=O)O)cc1`
Solution: 0.102

Problem: What value of measured activity change, negative = cytotoxicity is listed for CCCCC(CC)COCC1CO1 (configuration not stated) ?
Solution: -13.9

Problem: Quick one: activity change, negative = cytotoxicity for `CN(C)c1cccc(O)c1` ?
Solution: -1.51
